B1: CHCHD3 (parent)
chain: YSGAYGASVSDEELKRRVAEELAL

variants of: B1; test: protein stability index of a GFP-peptide fusion (GPS, HEK-293T) (PSI 1-6); higher = more stable; details: c terminus: a fixed tail appended;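 further: lentivirally expressed fusions sorted by FACS into six bins by GFP to DsRed ratio, PSI derived from sequencing read proportions per bin multiplied by bin number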
Entries and their measured protein stability index follow.

| Mutation Code | protein stability index |
| --- | --- |
| Y5V | 4.95 |
| D11A | 2.79 |
| V9R | 2.19 |
| R16L | 2.75 |
| L14H | 2.79 |
| R16D | 3.66 |
| R16S | 1.95 |
| L24M | 2.74 |
| L22G | 2.33 |
| R17P | 2.64 |
| E12A | 2.29 |
| S8F | 2 |
| E12M | 2.39 |
| E13K | 3.04 |
| R17E | 3.17 |
| A19G | 3.1 |
| E20C | 2.48 |
| Y1A | 4.93 |
| E12N | 2.4 |
| L24D | 2.52 |
| A19W | 2.69 |
| E12T | 2.71 |
